Target: DLK (Homo sapiens)
Sequence (Q12852 1-859): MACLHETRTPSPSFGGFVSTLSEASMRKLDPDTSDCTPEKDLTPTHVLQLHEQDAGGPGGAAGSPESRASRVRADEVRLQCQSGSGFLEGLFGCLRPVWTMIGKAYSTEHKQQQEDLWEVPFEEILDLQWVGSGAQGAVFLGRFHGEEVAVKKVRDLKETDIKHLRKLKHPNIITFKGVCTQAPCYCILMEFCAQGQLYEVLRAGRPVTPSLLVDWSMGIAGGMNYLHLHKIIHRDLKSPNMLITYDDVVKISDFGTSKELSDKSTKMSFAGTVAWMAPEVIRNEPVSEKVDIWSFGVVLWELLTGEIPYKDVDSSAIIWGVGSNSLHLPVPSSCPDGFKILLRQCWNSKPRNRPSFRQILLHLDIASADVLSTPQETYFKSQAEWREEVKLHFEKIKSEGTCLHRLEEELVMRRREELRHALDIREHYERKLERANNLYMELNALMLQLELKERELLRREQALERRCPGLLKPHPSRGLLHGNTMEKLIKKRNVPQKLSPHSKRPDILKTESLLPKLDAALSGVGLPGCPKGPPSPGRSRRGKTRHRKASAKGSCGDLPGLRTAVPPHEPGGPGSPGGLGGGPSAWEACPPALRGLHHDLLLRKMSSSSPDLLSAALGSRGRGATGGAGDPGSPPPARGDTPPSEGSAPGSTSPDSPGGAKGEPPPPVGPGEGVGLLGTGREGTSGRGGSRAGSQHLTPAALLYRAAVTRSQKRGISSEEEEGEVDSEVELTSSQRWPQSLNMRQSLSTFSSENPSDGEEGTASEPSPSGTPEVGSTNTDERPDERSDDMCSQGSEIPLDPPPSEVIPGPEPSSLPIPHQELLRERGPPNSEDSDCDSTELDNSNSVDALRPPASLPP
measured-parameter: IC50 (nM)

>  <smiles>
CN1CCN(Cc2ccc(-c3cnc4[nH]cc(-c5ccc6[nH]ccc6c5)c4c3)cc2)CC1

>  <unit-of-measure>
nM

>  <numeric-readout>
150

$$$$

====

Target: MLK3 (Homo sapiens)
Sequence (Q16584 whole entry): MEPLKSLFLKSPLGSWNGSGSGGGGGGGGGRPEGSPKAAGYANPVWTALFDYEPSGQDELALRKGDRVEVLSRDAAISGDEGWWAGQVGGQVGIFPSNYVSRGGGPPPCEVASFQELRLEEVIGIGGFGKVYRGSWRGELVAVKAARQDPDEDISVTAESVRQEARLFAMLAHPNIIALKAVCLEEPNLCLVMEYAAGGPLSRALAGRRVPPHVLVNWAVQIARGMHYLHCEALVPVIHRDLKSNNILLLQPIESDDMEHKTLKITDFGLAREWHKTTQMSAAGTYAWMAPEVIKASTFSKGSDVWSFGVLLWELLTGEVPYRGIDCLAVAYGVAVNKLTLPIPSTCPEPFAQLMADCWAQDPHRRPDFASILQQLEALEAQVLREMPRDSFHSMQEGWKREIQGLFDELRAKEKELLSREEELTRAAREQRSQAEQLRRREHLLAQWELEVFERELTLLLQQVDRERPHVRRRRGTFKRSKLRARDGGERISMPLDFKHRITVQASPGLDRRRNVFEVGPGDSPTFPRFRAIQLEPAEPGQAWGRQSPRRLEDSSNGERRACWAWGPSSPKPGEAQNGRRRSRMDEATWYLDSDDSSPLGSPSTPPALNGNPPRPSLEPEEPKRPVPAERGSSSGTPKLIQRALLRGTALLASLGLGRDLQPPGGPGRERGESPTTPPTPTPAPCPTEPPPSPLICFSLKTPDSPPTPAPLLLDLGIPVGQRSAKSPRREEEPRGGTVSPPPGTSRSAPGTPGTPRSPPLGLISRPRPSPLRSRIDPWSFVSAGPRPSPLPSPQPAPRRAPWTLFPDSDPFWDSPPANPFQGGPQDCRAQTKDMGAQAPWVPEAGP

>  <smiles>
CN1CCN(Cc2ccc(-c3cnc4[nH]cc(-c5ccc6[nH]ccc6c5)c4c3)cc2)CC1

>  <test-system>
MLK3 (Homo sapiens)

>  <Ki>
~10 nM

$$$$
